- ASSAY TARGET: Cellular tumor antigen p53 (Homo sapiens)
- ASSAY SUMMARY: Primary qHTS for small molecule compounds that upregulate eGFP-tagged delta133p53alpha (in N-terminal) cells. (AID 2060322);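 note: cells pre-induced with doxycycline then dosed without doxycycline; 0% = DMSO vehicle and 100% = reference activator; nearly all actives have a fitted effect of over 75% in size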
- ASSAY CONDITIONS: NCI-H358 eGFP-delta133p53alpha fluorescence, 24 h; hits give high values
Results filed as inconclusive are left out.
MEASURED ENDPOINT: activation (%)
One number for each entry, in %.

CCOC(=O)N[C@@H]1CC[C@@H]2[C@@H](C1)C[C@H]1C(=O)O[C@H](C)[C@H]1[C@@H]2C=Cc1ccc(-c2cccc(F)c2)cn1 | 8.14
C[C@@]12C[C@]3(O)O[C@H](O1)[C@]1(COC(=O)c4ccccc4)[C@H]3C[C@@]12O[C@@H]1O[C@H](COC(=O)c2ccccc2)[C@@H](O)[C@H](O)[C@H]1O | -5.34

Consider the additional molecule presented here.
Exam item: Please supply the value of reported activation for the item CCCCCCc1ccc(O)cc1O
Marked response: 3.35

###

Record form. Attribute: activation. Fill in for each entry.
- ASSAY TARGET: Cellular tumor antigen p53 (Homo sapiens) (UniProt P04637)
- Sequence (P04637 whole entry, looked up): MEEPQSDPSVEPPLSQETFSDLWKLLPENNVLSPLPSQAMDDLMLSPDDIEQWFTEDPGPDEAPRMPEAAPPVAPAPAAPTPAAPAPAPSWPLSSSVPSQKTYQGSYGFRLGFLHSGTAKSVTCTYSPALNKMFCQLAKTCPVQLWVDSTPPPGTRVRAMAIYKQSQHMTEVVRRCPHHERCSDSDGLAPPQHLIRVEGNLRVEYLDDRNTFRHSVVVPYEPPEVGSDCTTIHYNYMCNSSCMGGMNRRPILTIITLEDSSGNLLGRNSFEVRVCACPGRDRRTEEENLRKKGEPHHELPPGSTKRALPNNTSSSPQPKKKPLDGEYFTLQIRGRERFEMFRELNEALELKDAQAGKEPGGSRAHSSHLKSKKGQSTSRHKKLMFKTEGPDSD
- ASSAY SUMMARY: Primary qHTS for small molecule compounds that upregulate eGFP-tagged delta133p53alpha (in N-terminal) cells. (AID 2060322);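 note: cells pre-induced with doxycycline then dosed without doxycycline; 0% = DMSO vehicle and 100% = reference activator; nearly all actives have a fitted effect of over 75% in size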
- ASSAY CONDITIONS: NCI-H358 eGFP-delta133p53alpha fluorescence, 24 h; hits give high values
Inconclusive results are not listed.
Numbers only, in %.

Consider the following illustrative entries.
O=C(O)c1cc(=O)cc(C(=O)O)[nH]1 | -16.3
FC(F)(F)c1nnc2c(Sc3ccccc3)nc3ccc(Cl)cc3n12 | 29.1
CN1N=C(C(N)=O)CCC1=O | -6.21

Below is a list of compounds. For each, state its recorded activation.
1. CC1OC(OC2C(O)C(C(=O)O)OC(OC3CCC4(C)C(CCC5(C)C4C=CC4=C6CC(C)(C)CC(O)C6(C)CCC45C)C3(C)C)C2OC2OCC(O)C(O)C2O)C(O)C(O)C1O (configuration not stated)
2. OC[C@H]1O[C@@H](n2cnc3c2NC=NC[C@H]3O)C[C@@H]1O
3. CC(C)C(=O)Nc1cccc(C(F)(F)F)c1
4. CCCCCOc1ccc(C2SC(=O)NC2=O)cc1OCC (configuration not stated)
5. CC(=C(CCOC(=O)C(C)C)SSC(CCOC(=O)C(C)C)=C(C)N(C=O)Cc1cnc(C)nc1N)N(C=O)Cc1cnc(C)nc1N

Marked response:
-19.1
-7.16
-15.3
2.33
-4.18

###

- ASSAY SUMMARY: BET inhibitor-based combinations targeting novel dependencies in MECOM-rearranged (r) AML: SET-2 cell line (AID 2202231);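 note: plate controls were DMSO treated cells for no effect and wells without cells for full effect; nearly all actives have a fitted effect of over 35% in size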
- ASSAY CONDITIONS: SET-2 AML cells viability, CellTiter-Glo luminescence, 48 h; hits give low values, concentration not given here
Inconclusive results are not listed.
MEASURED ENDPOINT: viability (%)
One number for each entry, in %.

Solved entries (count: 5):
CCn1cc(C(=O)O)c(=O)c2cc(F)c(N3CCNC(C)C3)c(F)c21 (stereo not drawn) | 95.2
CC1(O)CC(c2nc(-c3ccc4ccc(-c5ccccc5)nc4c3)c3c(N)nccn23)C1 (stereo not drawn) | 83.7
CCCC1OC2C[C@@H]3[C@H]4CCC5=CC(=O)C=C[C@]5(C)[C@H]4C(O)C[C@]3(C)[C@]2(C(=O)CO)O1 (stereo partly drawn) | 98.3
CCc1cc(Nc2nccc(-c3c(-c4ccc(OC)c(C(=O)Nc5c(F)cccc5F)c4)nc4ccccn34)n2)c(OC)cc1N1CCC(N2CCN(S(C)(=O)=O)CC2)CC1 | 113
O=C(NCCCCN1CCOCC1)c1cc2ccccc2o1 | 111

Batch: viability for all items listed.
1. CC1CCC(n2c3cnccc3c3cnc(Nc4ccc5c(n4)CCN(C(=O)CO)C5)nc32)CC1 (stereo not drawn)
2. O=C(O)CCCc1c[nH]c2ccccc12
3. Cc1c(Cn2c(C)nc3c(C(=O)O)cc(N4CCOCC4)cc32)cccc1C(F)(F)F
4. CC[C@H](NC(=O)[C@H](CS(=O)(=O)CC1CC1)N[C@@H](c1ccc(F)cc1)C(F)(F)F)C(=O)C(=O)NC1CC1
5. Nc1ccc(/C=C/C(=O)NCc2cc3cc(-c4ccc(C(=O)N5CCC(F)(F)CC5)cc4)cc(-c4ccc(F)cc4)c3o2)cn1
6. COc1ccc(C(=O)CC(=O)c2ccc(C(C)(C)C)cc2)cc1
7. Cc1nnc(C(=O)NC(C)(C)c2nc(C(=O)NCc3ccc(F)cc3)c(O)c(=O)n2C)o1
8. CN(C)CC(C)(C)CNc1nn2c(-c3ccccc3)nnc2cc1C1CCC1

Marked response:
[105, 116, 98.9, 112, 104, 107, 118, 113]

###

- ASSAY SUMMARY: BET inhibitor-based combinations targeting novel dependencies in MECOM-rearranged (r) AML: MV-4-11 cell line (AID 2202233); note: nearly all actives have a fitted effect of over 45% in size
- ASSAY CONDITIONS: MV-4-11 AML viability, CellTiter-Glo luminescence, 48 h; series mostly up to 46 µM
Records with an inconclusive call do not appear. Activity calls are given as the source filed them. Calls come from the whole dose curve; as a rule, active = well fitted inhibition curve with a large enough effect; inconclusive = small, poorly fitted or top-dose-only effect; inactive = no such curve, though single readings can be large or run the other way.
Return exactly one item of t = active, f = inactive

C[C@@H](Oc1cc(-c2cnn(C3CCNCC3)c2)cnc1N)c1c(Cl)ccc(F)c1Cl | t

Exam item: Fill in: this test's call for OC[C@@H](O)[C@@H](O)[C@H](O)[C@@H](O)CO is ___
Marked response: f

Exam item: Any idea what this test logged for Clc1ccccc1C(c1ccccc1)(c1ccccc1)n1ccnc1 ?
Marked response: t

Exam item: # fetch the recorded call for COC(=O)Nc1nc2ccc(Sc3ccccc3)cc2[nH]1 here
Marked response: t

Exam item: Recorded call for CC(C)(C)C(=O)Oc1ccc2c(c1)nc(NC(=O)c1cccc([N+](=O)[O-])c1)n2CCCO ?
Marked response: t

Exam item: Hi team, can someone confirm the assay call for CC#C[C@]1(O)CC[C@H]2[C@@H]3CCC4=CC(=O)CCC4=C3[C@@H](c3ccc(N(C)C)cc3)C[C@@]21C ?
Marked response: t

Exam item: Test call, this compound: CN(C)CC(C)(C)CNc1nn2c(-c3ccccc3)nnc2cc1C1CCC1
Marked response: f

###

- ASSAY TARGET: Retinaldehyde dehydrogenase 3 (Homo sapiens)
- ASSAY SUMMARY: qHTS for Inhibitors of the Aldehyde Dehydrogenase Family (ALDH1A3) Validation screen (AID 2061312); note: % is set by controls: 0 for no effect and ±100 for the full control effect; nearly all actives have a fitted effect of over 45% in size
- ASSAY CONDITIONS: ALDH1A3 enzyme inhibition qHTS validation, fluorescence; series mostly up to 84.7 µM
Inconclusive results are not listed. Active and inactive are the calls of the source. The call rests on the fitted dose curve; in most records, active means well fitted inhibition curve with a large enough effect; inconclusive means small, poorly fitted or top-dose-only effect; inactive means no such curve, though single readings can be large or run the other way.
MEASURED ENDPOINT: outcome

For orientation, consider the following solved cases.
CN1CCc2cc(Cl)c(O)cc2[C@@H](c2ccccc2)C1 | inactive
Cc1nc2c(OCc3ccccc3)cccn2c1CC#N | inactive
Oc1ccc(/C=C/c2cc(O)cc(O)c2)cc1 | inactive
NC(=O)CC[C@H](N)C(=O)O | inactive
COc1cc(C(O)C(=O)O)ccc1O (stereo not drawn) | inactive

Okay, here is my list. What is outcome for each of these?
1. Cc1cc(NC(=O)Nc2ccc3c(ccn3C)c2)sn1
2. Cc1cc(Nc2ccc(NC(=O)c3ccc(Nc4ccnc5ccccc45)cc3)cc2)nc(N)n1
3. O=C(O)C1=CCNCC1
4. Oc1ccc(-c2cnc3ccc(NCc4ccco4)nn23)cc1

Marked response:
1. inactive
2. inactive
3. inactive
4. inactive

Kindly give each listed record's outcome.
1. Cc1nc(C)c(-c2ccc(C3CCC(CC(=O)O)CC3)cc2)nc1C(N)=O (stereo not drawn)
2. CCCc1cc(C)[nH]c(=O)c1CNC(=O)c1cc(-c2ccnc(N3CCN(C)CC3)c2)cc2c1cnn2C(C)C
3. Nc1nc(Cl)nc2c1ncn2[C@@H]1O[C@H](COP(=O)(O)OP(=O)(O)OP(=O)(O)O)[C@@H](O)[C@H]1O
4. Cc1ccccc1C(C(=O)NC1CCCCC1)N(C(=O)Cn1ccnc1C)c1cccc(F)c1 (stereo not drawn)
5. CCOc1ccc(C(Nc2ccccn2)c2ccc3ccc(C)nc3c2O)cc1C (stereo not drawn)
6. NC1C=CC=C(C(=O)O)C1 (stereo not drawn)
7. CCCOc1ccccc1-c1nc2n[nH]nc2c(=O)[nH]1
8. CCOC(=O)COc1ccc2c(c1)C[C@@H](NC[C@H](O)c1cccc(Cl)c1)CC2

Marked response:
1. inactive
2. inactive
3. inactive
4. inactive
5. inactive
6. inactive
7. inactive
8. inactive

// input: 6 compounds below; output: outcome for each
1. Nc1ccccc1NC(=O)c1ccc(CNC(=O)OCc2cccnc2)cc1
2. O=C1NC(=O)C(c2cn3c4c(cccc24)CCC3)C1c1c[nH]c2ccccc12 (stereo not drawn)
3. NC(=O)N1c2ccccc2C=Cc2ccccc21
4. COc1ccc(CCN(C)CCCOc2nsc(-c3ccccc3)n2)cc1OC
5. O=C(O)C1CN(CCCP(=O)(O)O)CCN1 (stereo not drawn)
6. CC(N)C(=O)OC(C)(C)Cc1ccc(Cl)cc1 (stereo not drawn)

Marked response:
["inactive", "inactive", "inactive", "inactive", "inactive", "inactive"]
